Tested on: HL-60
Assay: Antiproliferative activity against HL-60 (human promyelocytic leukemic cells) in dark condition
Assay type: functional, cell-based
pIC50: −log10 of the molar value.

| compound-string | pIC50 |
| --- | --- |
| Cc1coc2c(OCCCN(C)C)c3oc(=O)c4c(c3cc12)CCCC4 | 4.80 |
| Cc1coc2c(O)c3oc(=O)c4c(c3cc12)CCCC4 | < 4.70 |
| COc1c2occc2cc2ccc(=O)oc12 | < 4.70 |
| Cc1coc2c(OCCCN(C)C)c3oc(=O)c4ccccc4c3cc12 | 5.00 |
| COc1c2occ(C)c2cc2c3c(c(=O)oc12)CCCC3 | < 4.70 |
| Cc1coc2c(O)c3oc(=O)c4ccccc4c3cc12 | < 4.70 |
| COc1c2occ(C)c2cc2c1oc(=O)c1ccccc12 | < 4.70 |
